Reference source for all entries: patent US10793553B2

Target: UniProt Q9NYK1
Sequence (Q9NYK1 27-1049): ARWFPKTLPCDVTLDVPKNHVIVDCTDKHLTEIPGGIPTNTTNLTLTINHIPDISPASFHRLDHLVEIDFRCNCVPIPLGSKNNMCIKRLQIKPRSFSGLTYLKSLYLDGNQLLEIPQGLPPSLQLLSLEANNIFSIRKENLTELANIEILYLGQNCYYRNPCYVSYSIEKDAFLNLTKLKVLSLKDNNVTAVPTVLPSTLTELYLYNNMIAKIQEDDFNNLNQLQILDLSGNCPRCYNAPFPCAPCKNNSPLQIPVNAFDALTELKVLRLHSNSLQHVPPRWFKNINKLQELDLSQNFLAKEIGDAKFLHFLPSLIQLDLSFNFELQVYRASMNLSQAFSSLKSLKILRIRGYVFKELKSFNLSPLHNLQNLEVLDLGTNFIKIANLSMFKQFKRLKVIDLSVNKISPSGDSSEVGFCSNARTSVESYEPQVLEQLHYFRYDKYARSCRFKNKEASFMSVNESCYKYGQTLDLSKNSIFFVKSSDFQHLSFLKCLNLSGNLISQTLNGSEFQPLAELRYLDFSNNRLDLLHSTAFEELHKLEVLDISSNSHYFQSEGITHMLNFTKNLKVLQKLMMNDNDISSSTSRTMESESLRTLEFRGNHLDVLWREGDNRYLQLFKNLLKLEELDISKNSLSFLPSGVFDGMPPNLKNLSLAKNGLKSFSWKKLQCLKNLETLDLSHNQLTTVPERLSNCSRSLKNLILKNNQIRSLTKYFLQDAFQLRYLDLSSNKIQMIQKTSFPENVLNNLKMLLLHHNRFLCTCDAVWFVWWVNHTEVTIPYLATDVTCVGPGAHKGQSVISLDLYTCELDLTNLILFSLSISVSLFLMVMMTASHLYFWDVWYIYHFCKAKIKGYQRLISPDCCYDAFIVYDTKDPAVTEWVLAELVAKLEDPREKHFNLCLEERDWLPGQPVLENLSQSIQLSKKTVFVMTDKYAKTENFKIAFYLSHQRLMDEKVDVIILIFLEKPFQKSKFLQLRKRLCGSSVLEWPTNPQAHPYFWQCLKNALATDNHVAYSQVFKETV
Assay: HEK TLR7 Cell Assay
Settings: TLR7/NFKb HEK cells, R848 agonist 10 uM final, Steady-Glo readout
Below, each of the compounds is paired with its reported IC50 value.

// known answers, use as guide
{"compound": "C[C@@H]1CN(c2ccc(C(F)(F)F)c3ncccc23)C[C@@H]1NC(=O)CC1CCCN(C)C1 (single isomer, unassigned) [Compound 20]", "studyTarget": "UniProt Q9NYK1", "IC50": "< 1000 nM"}
{"compound": "C[C@@H]1CN(c2ccc(C(F)(F)F)c3ncccc23)C[C@@H]1NC(=O)CC1CCCN(C)C1 (single isomer, unassigned) [Compound 19]", "studyTarget": "UniProt Q9NYK1", "IC50": "< 1000 nM"}
{"compound": "C[C@@H]1CN(c2ccc(C#N)c3nccnc23)C[C@@H]1NC(=O)CN1CCOCC1", "studyTarget": "UniProt Q9NYK1", "IC50": "1000 to 10000 nM"}

Now for the compound whose IC50 we want.
For `Cc1ccc(N2C[C@@H](C)[C@@H](NC(=O)CC3(C)CCN(C)CC3)C2)c2cccnc12` , what is its reported IC50?
< 1000 nM
